MEASURED ON: Bifunctional protein GlmU (Mycobacterium tuberculosis (strain ATCC 25618 / H37Rv)) (UniProt P9WMN3)
Sequence (P9WMN3 whole entry, looked up): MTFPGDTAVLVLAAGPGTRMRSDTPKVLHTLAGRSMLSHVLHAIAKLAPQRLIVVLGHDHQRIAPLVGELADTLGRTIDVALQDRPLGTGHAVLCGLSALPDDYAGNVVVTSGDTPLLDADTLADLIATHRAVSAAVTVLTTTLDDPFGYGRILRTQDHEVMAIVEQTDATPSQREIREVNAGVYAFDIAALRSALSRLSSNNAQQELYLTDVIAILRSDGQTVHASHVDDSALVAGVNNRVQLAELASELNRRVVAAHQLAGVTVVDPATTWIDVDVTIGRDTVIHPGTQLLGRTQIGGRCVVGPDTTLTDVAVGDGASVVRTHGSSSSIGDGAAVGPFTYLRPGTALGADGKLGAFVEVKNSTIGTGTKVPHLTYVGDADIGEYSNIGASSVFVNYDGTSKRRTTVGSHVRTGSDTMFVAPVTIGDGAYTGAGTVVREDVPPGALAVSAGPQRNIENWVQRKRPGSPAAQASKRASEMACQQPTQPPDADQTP
METHOD DESCRIPTION: inhibition of mycobacterial GlmU enzyme – biochemical, glucosamine-1-phosphate acetyltransferase (AID 1376);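 further: 0% = complete reaction with vehicle and 100% = reaction without substrate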
STATED CONDITIONS: M. tuberculosis GlmU acetyltransferase enzyme assay;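 tested at 30 µM in the primary screen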
Hit rate of the full screen: of about 220,000 compounds, about 530 (0.24%) were called active. No stated cut-off is given here; in the data, active means inhibition above about 13%; inconclusive means no clear call, values can overlap the other calls; inactive means below that. What follows is part of a selection rich in actives, with near analogues and random picks from the rest. Entries with a potency or affinity are not part of this list.
The reply should name one outcome from t (active), f (inactive)

Take a look at these entries with their results.
>  <COMPOUND>
C=CCOc1ccc(C2C(C(=O)c3cccs3)=C(O)C(=O)N2c2nnc(C)s2)cc1 (stereo unspecified)

>  <CLASS NAME>
t

$$$$
>  <COMPOUND>
C=CCOc1ccc(C2C(C(=O)c3ccco3)=C(O)C(=O)N2c2nnc(C)s2)cc1 (stereo unspecified)

>  <CLASS NAME>
f

$$$$
>  <COMPOUND>
CCOC(=O)C1Nc2ccc(C)cc2C2C=CCC12 (stereo unspecified)

>  <CLASS NAME>
f

$$$$
>  <COMPOUND>
CCCCNC(=O)c1ccc(S(=O)(=O)c2ccc(Cl)cc2)c(NC(C)=O)c1

>  <CLASS NAME>
t

$$$$
>  <COMPOUND>
O=C(/C=C/c1ccccc1)c1c(O)n(CCc2ccccc2)c(=O)[nH]c1=O

>  <CLASS NAME>
f

$$$$
>  <COMPOUND>
COc1ccc(C(=O)Nc2nc3ccccc3s2)cc1OC

>  <CLASS NAME>
f

$$$$

Query :: Please share the test call associated with O=C(NCc1ccccc1)c1ccc2c(=O)[nH]c3c(C(=O)NCC4CCCO4)sc(=S)n3c2c1 (stereo unspecified) .
Result :: f

Query :: Please share the test call associated with Cc1ccc(C2C(C(=O)c3cccs3)=C(O)C(=O)N2c2nnc(C)s2)cc1 (stereo unspecified) .
Result :: f

Query :: Please share the test call associated with Nc1ccc(Cc2ccc(N)c(O)c2)cc1O .
Result :: t

Query :: Please share the test call associated with Cc1cc(Cc2ccc(N)c(C)c2)ccc1N .
Result :: f

Query :: Please share the test call associated with CCCC(=O)Nc1cc(C(=O)O)ccc1S(=O)(=O)c1ccc(Cl)cc1 .
Result :: f

====

MEASURED ON: Bifunctional protein GlmU (Mycobacterium tuberculosis (strain ATCC 25618 / H37Rv))
METHOD DESCRIPTION: inhibition of mycobacterial GlmU enzyme – biochemical, glucosamine-1-phosphate acetyltransferase (AID 1376);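 further: 0% = complete reaction with vehicle and 100% = reaction without substrate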
STATED CONDITIONS: M. tuberculosis GlmU acetyltransferase enzyme assay; hits give high values;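 tested at 30 µM in the primary screen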
The whole screen tested about 220,000 compounds, of which about 530 (0.24%) were called active. Only a selection was taken, and actives are over-represented in it overall. Entries with a potency or affinity are not part of this list.
OBSERVED PROPERTY: inhibition (%)
Lab book: enter the figure in %, no units written.

Query :: Consider the compound O=C(O)C(Cc1cc(Cl)ccc1Cl)Sc1nc2ccccc2[nH]1 (stereo not given) and give its measured inhibition.
Result :: -6.33

Query :: Consider the compound c1ccc(CSc2ccc(-c3cccnc3)nn2)cc1 and give its measured inhibition.
Result :: -0.08

Query :: Consider the compound COc1ccc(/C=N/n2c(-c3n[nH]c4c3CCC4)n[nH]c2=S)cc1OC and give its measured inhibition.
Result :: 14.3

Query :: Consider the compound COCCNC(=O)C1CC2Cn3c(nc4cc(C)c(C)cc43)C2N1C (stereo not given) and give its measured inhibition.
Result :: 1.27

Query :: Consider the compound Cc1cc(NC(=O)CSc2nc(-c3ccccc3)c(C#N)c(=O)[nH]2)no1 and give its measured inhibition.
Result :: 8.24

Query :: Consider the compound COc1cccc(N2CCN(C(=O)NC3CCCCC3)CC2)c1 and give its measured inhibition.
Result :: -5.07

Query :: Consider the compound Cc1ccc(C(c2c(O)nc3n(c2=O)CCS3)c2c(O)nc3n(c2=O)CCS3)cc1 and give its measured inhibition.
Result :: -1.5

Query :: Consider the compound CSc1ccccc1NC(=O)Nc1ccc(Cl)cc1 and give its measured inhibition.
Result :: 1.07

Query :: Consider the compound O=C(NCC1CCCO1)c1nc2c(nnn2Cc2ccc(F)cc2)c(=O)[nH]1 (stereo not given) and give its measured inhibition.
Result :: 13.4

Query :: Consider the compound O=C(NC1CC1)C1=C[C@@H](c2ccc(C(F)(F)F)cc2)C[C@@H](OCCCCO)O1 and give its measured inhibition.
Result :: 0.57

Query :: Consider the compound Cc1cc(C)nc(NS(=O)(=O)c2ccc(NC(=O)CSc3nc(-c4ccccc4)c(C#N)c(=O)[nH]3)cc2)n1 and give its measured inhibition.
Result :: 13.9

Query :: Consider the compound Cc1ccc(NC(=S)N/N=C2\CC(C)(C)Oc3ccc(O)cc32)cc1 and give its measured inhibition.
Result :: 0.56

Query :: Consider the compound CCOc1ccccc1NC1=C(Cl)C(=O)N(c2ccccc2)C1=O and give its measured inhibition.
Result :: 0.96

Query :: Consider the compound c1cnc2ccc(C(c3nnnn3C3CCCCC3)N3CCN4CCCC4C3)cc2c1 (stereo not given) and give its measured inhibition.
Result :: -1.69

Query :: Consider the compound Cc1oc(/N=C/c2c(O)ccc3ccccc23)c(C#N)c1C and give its measured inhibition.
Result :: -4.74

Query :: Consider the compound COc1ccccc1CCNC1CCC(C)CC1 (stereo not given) and give its measured inhibition.
Result :: 1.25

Query :: Consider the compound Cc1nc(-c2ccccc2Cl)sc1C(=O)/C=C/N(C)C and give its measured inhibition.
Result :: -0.01

Query :: Consider the compound O=C1C(Cl)=C(NCCc2ccccc2)C(=O)N1CCc1ccccc1 and give its measured inhibition.
Result :: 1.54
